# test name: Pharmacokinetic evaluation following a single oral and intravenous administration
# Format: in vivo, CD1 mouse
# setup conditions: CD1, mouse, plasma, iv, 1 mg/kg, Table 9, IV Dose: 1 mg/kg, 2 h, mean; read-out: Concentration, Mean
property label: concentration at 2 h (ng/mL)

[
  {
    "compound": "CC(=O)N[C@@H](Cc1ccc(CN(C)C)cc1)c1nnc(-c2cccc(OC(F)(F)F)c2)s1",
    "property label": "concentration at 2 h",
    "measured": 25.4
  }
]

---

# test name: Pharmacokinetic evaluation following a single oral and intravenous administration
# Assay type: in vivo, CD1 mouse
# setup conditions: CD1, mouse, plasma, po, 5 mg/kg, Table 11, PO Dose: 5 mg/kg, 2 h, Mouse 6; read-out: Concentration
# Experimental: A NMP stock solution was prepared by adding 1.136 mL of NMP to 5.68 mg of compound no. 42140 with vortexing and sonification, to obtain a solution with a concentration at 5 mg/mL of 42140:01. Next, to prepare an intravenous formulation, 0.100 mL of the 5 mg/mL stock solution was placed in a new vial. 0.100 mL of NMP and 0.400 mL of PEG400 were added with vortexing and sonification, followed by addition of 0.400 mL of saline with vortexing and sonification. […] 42140:01. […]

[
  {
    "compound": "CC(=O)N[C@@H](Cc1ccc(CN(C)C)cc1)c1nnc(-c2cccc(OC(F)(F)F)c2)s1",
    "unit string": "ng/mL",
    "concentration at 2 h": 105
  }
]

---

# test name: Pharmacokinetic evaluation following a single oral and intravenous administration
# Assay type: in vivo, CD1 mouse
# setup conditions: CD1, mouse, plasma, po, 5 mg/kg, Table 12, PO Dose: 5 mg/kg, mean; read-out: AUClast, Mean

[
  {
    "compound": "CC(=O)N[C@@H](Cc1ccc(CN(C)C)cc1)c1nnc(-c2cccc(OC(F)(F)F)c2)s1 [Compound 42320]",
    "AUC(0-t) [ng·h/mL]": 788
  }
]

---

# test name: Pharmacokinetic evaluation following a single oral and intravenous administration
# Type: in vivo, CD1 mouse
# setup conditions: CD1, mouse, plasma, iv, 1 mg/kg, Table 9, IV Dose: 1 mg/kg, 0.5 h, Mouse 1; read-out: Concentration

[
  {
    "compound": "CC(=O)N[C@@H](Cc1ccc(CN(C)C)cc1)c1nnc(-c2cccc(OC(F)(F)F)c2)s1",
    "concentration at 0.5 h / ng/mL": 68
  }
]

---

# test name: Pharmacokinetic evaluation following a single oral and intravenous administration
# Type: in vivo, CD1 mouse
# setup conditions: CD1, mouse, plasma, iv, 1 mg/kg, Table 3, IV Dose: 1 mg/kg, 4 h, Mouse 3; read-out: Concentration

[
  {
    "compound": "CNCc1ccc(C[C@H](NC(C)=O)c2nnc(-c3cccc(OC(F)(F)F)c3)s2)cc1",
    "concentration at 4 h": "23.3 ng/mL"
  }
]

---

# test name: Pharmacokinetic evaluation following a single oral and intravenous administration
# Assay type: in vivo, CD1 mouse
# setup conditions: CD1, mouse, plasma, iv, 1 mg/kg, Table 3, IV Dose: 1 mg/kg, 24 h, Mouse 1; read-out: Concentration
property label: concentration at 24 h (ng/mL)

[
  {
    "compound": "CNCc1ccc(C[C@H](NC(C)=O)c2nnc(-c3cccc(OC(F)(F)F)c3)s2)cc1",
    "measured": 6.4
  }
]

---

# test name: Pharmacokinetic evaluation following a single oral and intravenous administration
# Type: in vivo, CD1 mouse
# setup conditions: CD1, mouse, plasma, iv, 1 mg/kg, Table 10, IV Dose: 1 mg/kg, Mouse 3; read-out: AUClast
property label: AUC(0-t) (ng·h/mL)

[
  {
    "molecule": "CC(=O)N[C@@H](Cc1ccc(CN(C)C)cc1)c1nnc(-c2cccc(OC(F)(F)F)c2)s1 [Compound 42320]",
    "measured": 172
  }
]

---

# tested target: (Homo sapiens, UniProt P07996)
# Sequence (P07996 whole entry): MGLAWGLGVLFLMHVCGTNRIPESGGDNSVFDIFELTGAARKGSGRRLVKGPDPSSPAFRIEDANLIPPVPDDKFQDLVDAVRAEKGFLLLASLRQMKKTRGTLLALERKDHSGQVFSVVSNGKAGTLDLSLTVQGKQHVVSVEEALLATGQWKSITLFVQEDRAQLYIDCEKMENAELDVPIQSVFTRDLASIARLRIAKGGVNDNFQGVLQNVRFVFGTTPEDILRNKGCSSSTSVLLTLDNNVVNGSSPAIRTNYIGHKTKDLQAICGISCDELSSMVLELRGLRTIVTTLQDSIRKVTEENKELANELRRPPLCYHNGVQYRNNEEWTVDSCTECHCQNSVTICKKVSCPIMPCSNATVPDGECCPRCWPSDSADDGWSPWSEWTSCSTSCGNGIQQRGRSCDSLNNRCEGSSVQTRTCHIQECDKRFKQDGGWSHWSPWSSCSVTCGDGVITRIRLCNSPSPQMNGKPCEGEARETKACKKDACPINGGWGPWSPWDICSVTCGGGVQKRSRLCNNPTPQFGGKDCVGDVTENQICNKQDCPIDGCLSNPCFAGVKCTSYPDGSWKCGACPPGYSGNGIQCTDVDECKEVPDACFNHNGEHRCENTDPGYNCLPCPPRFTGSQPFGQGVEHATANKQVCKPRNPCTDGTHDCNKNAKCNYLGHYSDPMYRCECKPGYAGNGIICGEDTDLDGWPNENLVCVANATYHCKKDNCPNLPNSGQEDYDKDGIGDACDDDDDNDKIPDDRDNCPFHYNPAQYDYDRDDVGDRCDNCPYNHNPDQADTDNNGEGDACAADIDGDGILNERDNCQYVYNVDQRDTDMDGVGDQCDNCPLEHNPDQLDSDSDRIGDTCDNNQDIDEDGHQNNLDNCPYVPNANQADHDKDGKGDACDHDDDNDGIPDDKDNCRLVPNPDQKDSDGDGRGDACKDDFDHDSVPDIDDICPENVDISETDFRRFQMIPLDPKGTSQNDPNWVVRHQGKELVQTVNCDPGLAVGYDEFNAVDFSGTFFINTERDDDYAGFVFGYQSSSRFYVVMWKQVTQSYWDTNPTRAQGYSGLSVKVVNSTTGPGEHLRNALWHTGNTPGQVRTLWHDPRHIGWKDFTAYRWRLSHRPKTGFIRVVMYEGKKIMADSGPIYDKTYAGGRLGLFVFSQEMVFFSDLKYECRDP
# test name: Secondary Assay, inhibitory activity of thiadiazole and oxadiazole analogs as TGF-beta inhibitors
# Type: biochemical
# setup conditions: Table I
# Description: A summary of the inhibitory activity of representative thiadiazole analogs (Tables i and ii) and oxadiazole analogs (Table ii) is shown below. For initial screening, an ELISA-based screening assay was used in which purified human platelet TSP-1 was incubated with compounds and then incubated with recombinant latent TGF-β1 (purchased from R&D Systems). Activity is measured in a commercially available ELISA which detects only active TGF-β (R &D Systems). […]
Counter-ions that a name gives are not always drawn.
property label: log10 IC50 (log10 of the value in µM)

[
  {
    "compound": "CC(=O)NC(Cc1ccc(CN)cc1)c1nnc(-c2cc(C(F)(F)F)cc(C(F)(F)F)c2)s1 (stereo not shown)",
    "log10 IC50": -1.41
  },
  {
    "compound": "CC(=O)N[C@@H](Cc1ccc(CN)cc1)c1nnc(-c2cccc(OC(F)(F)F)c2)s1 (single isomer, unassigned)",
    "log10 IC50": -1.59
  },
  {
    "compound": "CC(=O)NC(Cc1ccc(CN)cc1)c1nnc(-c2ccncc2)s1 (stereo not shown)",
    "log10 IC50": -1.48
  },
  {
    "compound": "CC(=O)N(C)C(Cc1ccc(CN)cc1)c1nnc(-c2cccc(OC(F)(F)F)c2)s1 (stereo not shown) [Compound 42335, Hydrochloride]",
    "log10 IC50": -1.52
  },
  {
    "compound": "COc1cccc(-c2nnc(C(Cc3ccc(CN)cc3)NC(C)=O)s2)c1 (stereo not shown) [Compound 41149, hydrochloride]",
    "log10 IC50": -0.74
  },
  {
    "compound": "CC(=O)NC(Cc1ccc(CN)cc1)c1nnc(-c2cccc(C(F)(F)F)c2)s1 (stereo not shown) [Compound 41152, hydrochloride]",
    "log10 IC50": -2.05
  },
  {
    "compound": "CC(=O)NC(Cc1ccc(CN)cc1)c1nnc(-c2cccc(OC(F)(F)F)c2)s1 (racemic) [Compound 41791]",
    "log10 IC50": -1.21
  }
]

---

# test name: Pharmacokinetic evaluation following a single oral and intravenous administration
# Assay type: in vivo, CD1 mouse
# setup conditions: CD1, mouse, plasma, iv, 1 mg/kg, Table 10, IV Dose: 1 mg/kg, Mouse 3; read-out: AUCInf

[
  {
    "compound": "CC(=O)N[C@@H](Cc1ccc(CN(C)C)cc1)c1nnc(-c2cccc(OC(F)(F)F)c2)s1",
    "unit string": "ng·h/mL",
    "AUC(0-inf)": 193
  }
]

---

# test name: Pharmacokinetic evaluation following a single oral and intravenous administration
# Format: in vivo, CD1 mouse
# setup conditions: CD1, mouse, plasma, po, 5 mg/kg, Table 5, PO Dose: 5 mg/kg, 4 h, Mouse 5; read-out: Concentration
property label: concentration at 4 h (ng/mL)

[
  {
    "compound": "CNCc1ccc(C[C@H](NC(C)=O)c2nnc(-c3cccc(OC(F)(F)F)c3)s2)cc1 [Compound 42140]",
    "measured": 112
  }
]

---

# test name: Pharmacokinetic evaluation following a single oral and intravenous administration
# Assay type: in vivo, CD1 mouse
# setup conditions: CD1, mouse, plasma, iv, 1 mg/kg, Table 3, IV Dose: 1 mg/kg, 8 h, Mouse 3; read-out: Concentration
property label: concentration at 8 h (µg/mL)

[
  {
    "compound": "CNCc1ccc(C[C@H](NC(C)=O)c2nnc(-c3cccc(OC(F)(F)F)c3)s2)cc1",
    "property label": "concentration at 8 h",
    "unit string": "µg/mL",
    "measured": 0.0149
  }
]

---

# test name: Pharmacokinetic evaluation following a single oral and intravenous administration
# Assay type: in vivo, CD1 mouse
# setup conditions: CD1, mouse, plasma, po, 5 mg/kg, Table 12, PO Dose: 5 mg/kg, mean; read-out: Cmax, Mean

[
  {
    "compound": "CC(=O)N[C@@H](Cc1ccc(CN(C)C)cc1)c1nnc(-c2cccc(OC(F)(F)F)c2)s1",
    "Cmax / ng/mL": 148
  }
]

---

# test name: Pharmacokinetic evaluation following a single oral and intravenous administration
# Format: in vivo, CD1 mouse
# setup conditions: CD1, mouse, plasma, iv, 1 mg/kg, Table 3, IV Dose: 1 mg/kg, 8 h, Mouse 2; read-out: Concentration

[
  {
    "compound": "CNCc1ccc(C[C@H](NC(C)=O)c2nnc(-c3cccc(OC(F)(F)F)c3)s2)cc1",
    "concentration at 8 h [ng/mL]": 15.5
  }
]

---

# test name: Pharmacokinetic evaluation following a single oral and intravenous administration
# Format: in vivo, CD1 mouse
# setup conditions: CD1, mouse, plasma, po, 5 mg/kg, Table 11, PO Dose: 5 mg/kg, 0.5 h, mean; read-out: Concentration, Mean
# Protocol: A NMP stock solution was prepared by adding 1.136 mL of NMP to 5.68 mg of compound no. 42140 with vortexing and sonification, to obtain a solution with a concentration at 5 mg/mL of 42140:01. Next, to prepare an intravenous formulation, 0.100 mL of the 5 mg/mL stock solution was placed in a new vial. 0.100 mL of NMP and 0.400 mL of PEG400 were added with vortexing and sonification, followed by addition of 0.400 mL of saline with vortexing and sonification. […] 42140:01. […]

[
  {
    "compound": "CC(=O)N[C@@H](Cc1ccc(CN(C)C)cc1)c1nnc(-c2cccc(OC(F)(F)F)c2)s1",
    "concentration at 0.5 h": "148 ng/mL"
  }
]

Data credit: patent US11033535B2
